Provide the recorded folding stability dG for the entries that follow.
B1: HEEH_KT_rd6_0790 (parent)
chain: SEEEEEEWRRAKERGEEIIILGILWKPNDEEAERRIKEALRRV

variants of: B1; assay: folding stability dG (cDNA display proteolysis); higher = more stable; conditions: PBS, room temperature
Answers are plain numbers, in kcal/mol.

Example cases with answers are listed next.
VARIANT_ID | MEASUREMENT_TYPE | UNIT_ABBREVIATION | RECORDED_MEASUREMENT
P27G | folding stability dG | kcal/mol | 1.21
R42G | folding stability dG | kcal/mol | 1.88
G22N | folding stability dG | kcal/mol | 1.18
E6L | folding stability dG | kcal/mol | 1.93
K26N | folding stability dG | kcal/mol | 1.6

Give folding stability dG for all variants that follow.
1. R35L
2. P27M
3. E7P

[reply]
2.19
1.18
1.32
